Target: T1, orthogonal hCD122 receptor (hoRb), hCD122 with H133D and Y134F (human, UniProt P14784 27-550)
T1 sequence: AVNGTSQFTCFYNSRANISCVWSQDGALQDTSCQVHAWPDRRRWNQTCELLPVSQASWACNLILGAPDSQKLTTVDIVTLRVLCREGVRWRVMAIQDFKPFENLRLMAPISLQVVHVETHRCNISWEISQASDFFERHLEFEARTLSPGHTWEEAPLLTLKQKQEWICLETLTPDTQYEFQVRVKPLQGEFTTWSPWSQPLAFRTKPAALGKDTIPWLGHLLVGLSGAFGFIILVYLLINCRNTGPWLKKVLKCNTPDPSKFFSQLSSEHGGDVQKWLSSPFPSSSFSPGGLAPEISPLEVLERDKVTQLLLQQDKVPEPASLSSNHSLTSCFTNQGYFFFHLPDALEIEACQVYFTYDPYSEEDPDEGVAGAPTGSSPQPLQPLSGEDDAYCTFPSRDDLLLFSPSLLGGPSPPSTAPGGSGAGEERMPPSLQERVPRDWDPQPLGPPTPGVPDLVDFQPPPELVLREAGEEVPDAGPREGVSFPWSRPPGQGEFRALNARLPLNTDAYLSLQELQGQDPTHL
Assay: cell-based or functional assay
measurement_label: 3F8 Ortho Proliferation Signal 1:50
Answer format reminder: number followed by unit.

Past entries and their recorded results:
binder: T3N, SQVLKA (ligand) APNSSSTKKTQLQLSQLLVLLKAILNGINNYKNPKLTRMLTFKFYMPKKATELKHLQCLEEELKPLEEVLNLAQSKNFHLRPRDLISNINVIVLELKGSETTFMCEYADETATIVEFLNRWITFCQSIISTLT
measurement_label: 3F8 Ortho Proliferation Signal 1:50
result: 9790 cts/min
//
binder: Q13W SQVLKA (ligand) APTSSSTKKTQLWLSQLLVLLKAILNGINNYKNPKLTRMLTFKFYMPKKATELKHLQCLEEELKPLEEVLNLAQSKNFHLRPRDLISNINVIVLELKGSETTFMCEYADETATIVEFLNRWITFCQSIISTLT
measurement_label: 3F8 Ortho Proliferation Signal 1:50
result: 6420 cts/min
//
binder: Δ88N, SQVLKA (ligand) APTSSSTKKTQLQLSQLLVLLKAILNGINNYKNPKLTRMLTFKFYMPKKATELKHLQCLEEELKPLEEVLNLAQSKNFHLRPRDLISINVIVLELKGSETTFMCEYADETATIVEFLNRWITFCQSIISTLT
measurement_label: 3F8 Ortho Proliferation Signal 1:50
result: 666 cts/min

Now let's try a different one.
Qu. Tell me the measured 3F8 Ortho Proliferation Signal 1:50 of L18Q, SQVLKA (ligand) APTSSSTKKTQLQLSQLQVLLKAILNGINNYKNPKLTRMLTFKFYMPKKATELKHLQCLEEELKPLEEVLNLAQSKNFHLRPRDLISNINVIVLELKGSETTFMCEYADETATIVEFLNRWITFCQSIISTLT , please.
Ans. 44700 cts/min
